- test system: T1, TREM2 on human iPSC macrophages (human, UniProt Q9NZC2 19-230)
- T1 sequence (looked up): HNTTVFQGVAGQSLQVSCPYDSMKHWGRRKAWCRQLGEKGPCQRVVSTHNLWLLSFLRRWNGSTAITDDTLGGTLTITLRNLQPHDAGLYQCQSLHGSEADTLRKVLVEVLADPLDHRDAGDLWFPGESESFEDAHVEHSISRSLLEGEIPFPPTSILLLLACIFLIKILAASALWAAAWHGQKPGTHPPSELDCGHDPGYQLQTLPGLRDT
- assay name: cell-based or functional assay
*1 amine or outer side, *2 acyl side, *3 side chain or, on linkers, in order; H or OH if unused. Bridges are numbered along the chain shown (N, C = ends). Where no end group is shown, it is not given here. [ ]: non-standard residue; d: D form. TATA = O=C(CC[*:1])N1CN(C(=O)CC[*:2])CN(C(=O)CC[*:3])C1; 1Nal = N[C@@H](Cc1cccc2ccccc12)C(=O)O; hPhe = N[C@@H](CCc1ccccc1)C(=O)O
property label: pSYK (µM)
Give your result in µM as a bare value.

// pSYK (µM) lookup, binder = ACTNYCFWPFWSCA (linker 2-6-13 via TATA) [BCY19769] , result: 0.2

Looking up Ac-CSEYCF[1Nal]P[hPhe]YHC (linker 1-5-12 via TATA) [BCY19672] , I see its pSYK (µM) listed as 8.5

binder ACTSYCFWPFYQCA-NH2 (linker 2-6-13 via TATA; N-terminus assumed; SMILES C[C@H](N)C(=O)N[C@H]1CSCCC(=O)N2CN3CN(C2)C(=O)CCSC[C@H](NC(=O)[C@H](Cc2ccc(O)cc2)NC(=O)[C@H](CO)NC(=O)[C@H]([C@@H](C)O)NC1=O)C(=O)N[C@@H](Cc1ccccc1)C(=O)N[C@@H](Cc1c[nH]c2ccccc12)C(=O)N1CCC[C@H]1C(=O)N[C@@H](Cc1ccccc1)C(=O)N[C@@H](Cc1ccc(O)cc1)C(=O)N[C@@H](CCC(N)=O)C(=O)N[C@H](C(=O)N[C@@H](C)C(N)=O)CSCCC3=O) [BCY19768] , pSYK (µM) observed: 7.8

Hello, the source for this data is patent US20220296726A1, in case you need it.
